system: haematopoietic & lymphoid tumors (13 cell lines); test: CellTiter-Glo Viability Assay, haematopoietic & lymphoid tumors; type: cell-based; conditions: Homo sapiens; MOLT-4 cell line; inhibition of cancer cell proliferation; read-out: Haematopoietic & Lymphoid tumors, EC50 (μM) MOLT-4
The label is 1 (yes) for EC50 below 0.5 µM and 0 (no) for EC50 equal to or exceeding 0.5 µM.

// query Lab note: confirm whether the reported EC50 for this molecule is below 0.5 µM, equality not counting. molecule: CN1CCC(Oc2ccc(C(=O)Nc3cc4cc(-c5cnn(C)c5)ccc4cn3)cc2)CC1
// result 0 (no)

// query Lab note: confirm whether the reported EC50 for this molecule is below 0.5 µM, equality not counting. molecule: O=C(Nc1cncc(-c2ccc3[nH]nc(-c4cc5cnccc5[nH]4)c3c2)c1)C1CCCCC1
// result 1 (yes)

// query Lab note: confirm whether the reported EC50 for this molecule is below 0.5 µM, equality not counting. molecule: O=C1CCc2cccc(c2)-c2cncc(c2)NC(=O)c2n[nH]c3ccc(cc23)-c2cncc(c2)CN1
// result 0 (no)

// query Lab note: confirm whether the reported EC50 for this molecule is below 0.5 µM, equality not counting. molecule: Cc1ncc(C(=O)Nc2cc3nc(-c4cnc(C)n4C)ccc3cn2)s1
// result 1 (yes)

// query Lab note: confirm whether the reported EC50 for this molecule is below 0.5 µM, equality not counting. molecule: Cn1ncc(-c2ccc3cnc(NC(=O)C4CC5(C4)CN(CCF)C5)cc3c2)c1CN1CCCCC1
// result 0 (no)

// query Lab note: confirm whether the reported EC50 for this molecule is below 0.5 µM, equality not counting. molecule: Cc1cc2ncc(-c3ccc4cnc(NC(=O)c5ccnc(N6CCN(C)CC6)c5)cc4c3)cc2[nH]1
// result 0 (no)

// query Lab note: confirm whether the reported EC50 for this molecule is below 0.5 µM, equality not counting. molecule: CN1CCN(c2cc(C(=O)Nc3cc4cc(-c5cn(C)nn5)ccc4cn3)ccn2)CC1
// result 1 (yes)

// query Lab note: confirm whether the reported EC50 for this molecule is below 0.5 µM, equality not counting. molecule: CN1CC=C(c2cc(C(=O)Nc3cc4cc(-c5cncc(NC(C)(C)C)n5)cnc4cn3)ccn2)CC1
// result 0 (no)

###

PROPERTY_MEASURED: IC50 (µM)
All answers are understood in µM, so give the number only.

// query Quick check: IC50 on LRRK2 (Homo sapiens), item CN1CCN(c2cc(C(=O)Nc3cc4cc(-c5cnn(C)c5)ccc4cn3)ccn2)CC1 ?
// result 0.017

###

What EC50 was measured for each of the following?
test system: MDA-MB-231-Luc; experiment: CellTiter-Glo Viability Assay, breast cancer; format: cell-based; settings: Homo sapiens, 96 h
All answers are understood in nM, so give the number only.

// query Tell me the measured EC50 of CN1CCN(c2cc(C(=O)Nc3cc4cc(-c5cnn(C)c5)ccc4cn3)ccn2)CC1 , please.
// result 304

// query Tell me the measured EC50 of CN1CCN(C(=O)C(C)(C)c2ccc(C(=O)Nc3cn4cc(-c5ccncc5)ccc4n3)cc2)CC1 , please.
// result 3650

// query Tell me the measured EC50 of CN1CCC(N(C)c2cc(C(=O)Nc3cc4cc(-c5cnn(C)c5)ccc4cn3)ccn2)CC1 , please.
// result 230

###

Experiment: Plasma pharmacokinetics after single IV bolus or oral dose
Assay type: in vivo, mice
Conditions: mouse, plasma; PO, 10 mg/kg, male Balb/c mice
Protocol: Following a single Intravenous (IV) Bolus or Oral (PO) Dose to Male Balb/c Mice, approximately 0.1 mL whole blood was collected via the cheek vein (submandibular) according to an alternate bleeding schedule (n=3/time point/route) at 0.083 (IV), 0.25, 0.5, 1, 2, 4, 6, 8, and 24 hours post-dose into tubes containing K2EDTA anticoagulant and plasma was harvested by centrifugation. Prior to in vivo efficacy studies, pharmacokinetic studies were performed with Compound 12.
PROPERTY_MEASURED: AUC(0-t) (ng·h/mL)
All answers are understood in ng·h/mL, so give the number only.

// query Tell me the measured AUC(0-t) of CN1CCN(c2cc(C(=O)Nc3cc4cc(-c5cnn(C)c5)ccc4cn3)ccn2)CC1 , please.
// result 10300

###

system: haematopoietic & lymphoid tumors (13 cell lines); assay: CellTiter-Glo Viability Assay, haematopoietic & lymphoid tumors; assay type: cell-based; conditions: Homo sapiens; TF-1 cell line; inhibition of cancer cell proliferation; read-out: Haematopoietic & Lymphoid tumors, EC50 (μM) TF-1
PROPERTY_MEASURED: log10(EC50) (log10 of the value in µM)
Note: values are log10 of EC50 expressed in µM.

// query Quick check: log10(EC50) on haematopoietic & lymphoid tumors (13 cell lines), item CN1CCC(Sc2ccc3cnc(NC(=O)c4ccnc(SC5CCN(C)CC5)c4)cc3c2)CC1 [Compound 88] ?
// result 0.43

// query Quick check: log10(EC50) on haematopoietic & lymphoid tumors (13 cell lines), item Cn1cc(-c2ccc3cnc(NC(=O)c4ccc5c(c4)CNCC5)cc3c2)cn1 [Compound 74] ?
// result -0.17

// query Quick check: log10(EC50) on haematopoietic & lymphoid tumors (13 cell lines), item CN1CCC2(CC1)CN(c1cc(C(=O)Nc3cc4cc(-c5cnn(C)c5)ccc4cn3)ccn1)C2 [Compound 71] ?
// result -0.43

// query Quick check: log10(EC50) on haematopoietic & lymphoid tumors (13 cell lines), item CN(C)C1CN(c2cc(C(=O)Nc3cc4cc(-c5cnn(C)c5)ccc4cn3)ccn2)C1 [Compound 70] ?
// result -0.11

// query Quick check: log10(EC50) on haematopoietic & lymphoid tumors (13 cell lines), item O=C(Nc1cncc(-c2ccc3[nH]nc(-c4cc5cnccc5[nH]4)c3c2)c1)C1CCCCC1 [Compound 47] ?
// result -0.06

// query Quick check: log10(EC50) on haematopoietic & lymphoid tumors (13 cell lines), item CN1CCN(c2cc(C(=O)Nc3cc4cc(-c5cnn(C)c5N)ccc4cn3)ccn2)CC1 [Compound 75] ?
// result -0.65

// query Quick check: log10(EC50) on haematopoietic & lymphoid tumors (13 cell lines), item CN1CCC(C(=O)Nc2c[nH]nc2-c2nc3c(-c4ccc(F)s4)cccc3[nH]2)CC1 [Compound 90] ?
// result -1.10

// query Quick check: log10(EC50) on haematopoietic & lymphoid tumors (13 cell lines), item COc1ccc(NC(=O)c2n[nH]c3ccc(-c4cncc(CN5CCCCC5)c4)cc23)cn1 [Compound 59] ?
// result -0.39

// query Quick check: log10(EC50) on haematopoietic & lymphoid tumors (13 cell lines), item CN1CCN(c2cc(C(=O)Nc3cc4cc(-c5nnc(N(C)C)s5)ccc4cn3)ccn2)CC1 [Compound 84] ?
// result 0.12

// query Quick check: log10(EC50) on haematopoietic & lymphoid tumors (13 cell lines), item CN(C)Cc1cncc(-c2ccc3[nH]nc(-c4cc5c(-c6ccoc6)ccnc5[nH]4)c3c2)c1 [Compound 51] ?
// result 0.90

// query Quick check: log10(EC50) on haematopoietic & lymphoid tumors (13 cell lines), item O=C(Nc1c[nH]nc1-c1nc2c(-c3cccc(F)c3)cncc2[nH]1)c1cccnc1 [Compound 91] ?
// result -2.10

// query Quick check: log10(EC50) on haematopoietic & lymphoid tumors (13 cell lines), item CN1CCC2(CC1)CN(c1cc(C(=O)Nc3cc4cc(-c5cnn(C)c5CO)ccc4cn3)ccn1)C2 [Compound 76] ?
// result 0.38

// query Quick check: log10(EC50) on haematopoietic & lymphoid tumors (13 cell lines), item Cn1ncc(-c2ccc3cnc(NC(=O)C4CC5(C4)CN(CCF)C5)cc3c2)c1CN1CCCCC1 [Compound 77] ?
// result -0.03

// query Quick check: log10(EC50) on haematopoietic & lymphoid tumors (13 cell lines), item CN1CCCn2cc(nn2)-c2nccc3[nH]c(nc23)-c2n[nH]c3ccc(cc23)-c2cncc(c2)C1 [Compound 57] ?
// result 0.64

// query Quick check: log10(EC50) on haematopoietic & lymphoid tumors (13 cell lines), item CN1CCC(Oc2ccc(NC(=O)c3n[nH]c4cc(F)c(-c5cnn(C)c5)cc34)cc2)CC1 [Compound 61] ?
// result 0.12

###

system: colorectal cancer (6 cell lines); assay: CellTiter-Glo Viability Assay, colorectal cancer; type: cell-based; settings: Homo sapiens, HT-29; HT29 cell line; inhibition of cancer cell proliferation; read-out: Colorectal cancer, EC50 (μM) HT29
What EC50 was measured for each of the following?
All answers are understood in µM, so give the number only.

// query Quick check: EC50 on colorectal cancer (6 cell lines), item CN1CCN(c2ccc(NC(=O)c3n[nH]c4ccc(-c5cncc(NC(=O)C6CC6)c5)cc34)cn2)CC1 ?
// result 2.52

// query Quick check: EC50 on colorectal cancer (6 cell lines), item Cc1cc2ncc(-c3ccc4cnc(NC(=O)c5ccnc(N6CCN(C)CC6)c5)cc4c3)cc2[nH]1 ?
// result 1.32

// query Quick check: EC50 on colorectal cancer (6 cell lines), item CN1CCC(Oc2ccc(NC(=O)c3n[nH]cc3/C=C/c3cccnc3)cn2)CC1 ?
// result 5.48

// query Quick check: EC50 on colorectal cancer (6 cell lines), item Cn1ncc(-c2ccc3cnc(NC(=O)c4cccc(CN5CCCC5)c4)cc3c2)c1CN1CCCCC1 ?
// result 0.674

// query Quick check: EC50 on colorectal cancer (6 cell lines), item [2H]c1c([2H])c([2H])c(/C=C/C(=O)Nc2cc3cc(-c4cncn4C)ccc3cn2)c([2H])c1[2H] ?
// result 0.433

// query Quick check: EC50 on colorectal cancer (6 cell lines), item CN1CCC2(CC1)CN(c1cc(C(=O)Nc3cc4cc(-c5cnn(C)c5CO)ccc4cn3)ccn1)C2 ?
// result 1.41
